target: M. tuberculosis BioA (Mycobacterium tuberculosis, UniProt P9WQ81); experiment: biochemical; type: biochemical; settings: IC50 (μg/mL) BioA, mean ± SD
Sequence (P9WQ81 whole entry): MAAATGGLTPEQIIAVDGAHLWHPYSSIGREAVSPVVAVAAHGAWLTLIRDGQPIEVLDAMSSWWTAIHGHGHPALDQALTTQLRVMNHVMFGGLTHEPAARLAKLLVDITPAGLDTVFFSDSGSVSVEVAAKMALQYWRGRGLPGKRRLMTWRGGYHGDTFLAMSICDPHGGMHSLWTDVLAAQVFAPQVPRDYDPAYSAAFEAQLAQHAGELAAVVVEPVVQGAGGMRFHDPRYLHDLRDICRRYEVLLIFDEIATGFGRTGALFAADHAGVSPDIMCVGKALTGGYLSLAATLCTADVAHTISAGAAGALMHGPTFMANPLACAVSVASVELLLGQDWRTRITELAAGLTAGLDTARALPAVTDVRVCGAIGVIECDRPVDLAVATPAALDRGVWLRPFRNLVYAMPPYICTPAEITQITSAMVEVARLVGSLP
observedProperty: pIC50
pIC50 is defined as minus the log10 of a concentration measured in mol/L.

# return pIC50 for CC1(c2ccc(S(=O)(=O)c3ccccc3)cc2)OC(=O)C=CC1=O (stereo not shown) , test system: M. tuberculosis BioA (Mycobacterium tuberculosis, UniProt P9WQ81) 3.94

These measurements were taken from paper PMC5935190.
